B1: C2CD2L (parent)
chain: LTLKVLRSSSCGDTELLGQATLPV

Variants of: B1
Assay: protein stability index of a GFP-peptide fusion (GPS, HEK-293T) (PSI 1-6); higher = more stable;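 note: lentivirally expressed fusions sorted by FACS into six bins by GFP to DsRed ratio, PSI derived from sequencing read proportions per bin multiplied by bin number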
Settings: c terminus: a fixed tail appended
measurement name: protein stability index
Answers are plain numbers.

Solved entries (count: 4):
R7E : 1.96
R7D : 2.02
A20H : 1.23
L17R : 1.35

So, "Q19G" ? Its protein stability index was 1.91
